These measurements were taken from patent US20260191982A1.

half-life at 10 μM values, listed per item
# TESTED_TARGET: T1, Cathepsin B (Homo sapiens, UniProt P07858)
# T1 construct: purchased R&D Systems, Bio-Techne AG 953-CY-010
# PROTOCOL_SUMMARY: Cat B-induced cleavage, in vitro enzymatic cleavage assay with UHPLC-MS/MS
# Format: biochemical
# MEASUREMENT_CONTEXT: human, recombinant human Cathepsin B (activated); 10 μM test compound, Cathepsin B 2 μg/mL, MES buffer pH 5.0, 37° C.; read-out: T1/2 Compound

MOLECULE	half-life at 10 μM
COc1cc2cc(c1Cl)N(C)C(=O)C[C@H](OC(=O)[C@H](C)N(C)C(=O)CCSC1CC(=O)N(CC3CCC(C(=O)N[C@@H](CCCNC(N)=O)C(=O)N[C@@H](CCCCNC(=O)CCOCCOCCOCCOCCOCCNC(=O)CN4C(=O)CC(SC[C@H](NC(C)=O)C(=O)O)C4=O)C(=O)N[C@@H](Cc4ccc(O)cc4)C(=O)O)CC3)C1=O)[C@]1(C)O[C@H]1[C@H](C)[C@@H]1C[C@@](O)(NC(=O)O1)[C@H](OC)/C=C/C=C(\C)C2 (some centres unmarked)	< 1 min

Field: next molecule
Challenge: Can you look up the measured half-life at 10 μM of COc1cc2cc(c1Cl)N(C)C(=O)C[C@H](OC(=O)[C@H](C)N(C)C(=O)CCSC1CC(=O)N(CC3CCC(C(=O)N[C@@H](Cc4ccccc4)C(=O)N[C@@H](CCCNC(N)=O)C(=O)N[C@@H](CCCCNC(=O)CCOCCOCCOCCOCCOCCNC(=O)CN4C(=O)CC(SC[C@H](NC(C)=O)C(=O)O)C4=O)C(=O)N[C@@H](Cc4ccc(O)cc4)C(=O)O)CC3)C1=O)[C@]1(C)O[C@H]1[C@H](C)[C@@H]1C[C@@](O)(NC(=O)O1)[C@H](OC)/C=C/C=C(\C)C2 (some centres unmarked) for me?
Response given: < 1 min

* * *

# TESTED_TARGET: Cathepsin B (Homo sapiens)
# Construct: purchased R&D Systems, Bio-Techne AG 953-CY-010
# PROTOCOL_SUMMARY: Cat B-induced cleavage, in vitro enzymatic cleavage assay with UHPLC-MS/MS
# Assay type: biochemical
# MEASUREMENT_CONTEXT: versus Cys-MC-Val-Cit-PABC-MMAF
Non-standard residues stand in square brackets, D forms with d. Residues, ends and D or L forms follow the SMILES beside them. Groups on a side chain read outwards from the residue. *: point of attachment. DM1Mal(CH2)2CO = COc1cc2cc(c1Cl)N(C)C(=O)C[C@H](OC(=O)[C@H](C)N(C)C(=O)CCSC1CC(=O)N(CCC(=O)*)C1=O)[C@]1(C)O[C@H]1[C@H](C)[C@@H]1C[C@@](O)(NC(=O)O1)[C@H](OC)/C=C/C=C(\C)C2; X2 = CC(=O)N[C@@H](CSC1CC(=O)N(CCC(=O)*)C1=O)C(=O)O; Dolaproine = CO[C@@H]([C@@H]1CCCN1)[C@@H](C)C(=O)O; Dil = CC[C@H](C)[C@H](NC)[C@@H](CC(=O)O)OC; NMe2Val = CC(C)[C@@H](C(=O)*)N(C)C; PEG5 = NCCOCCOCCOCCOCCOCCC(=O)O; Cit = NC(=O)NCCC[C@H](N)C(=O)O; PEG4 = NCCOCCOCCOCCOCCC(=O)O
RECORDED_METRIC: Ratio (T1/2 Compound/T1/2 Reference)
No unit in the answer, please; the number alone is enough.

COMPOUND	TESTED_TARGET	Ratio (T1/2 Compound/T1/2 Reference)
CC[C@H](C)[C@@H]([C@@H](CC(=O)N1CCC[C@H]1[C@H](OC)[C@@H](C)C(=O)N[C@@H](Cc1ccccc1)C(=O)N[C@@H](CCCNC(N)=O)C(=O)N[C@@H](CCCCNC(=O)CCOCCOCCOCCOCCNC(=O)CCN1C(=O)CC(SC[C@H](NC(C)=O)C(=O)O)C1=O)C(=O)N[C@@H](Cc1ccccc1)C(=O)O)OC)N(C)C(=O)[C@@H](NC(=O)[C@H](C(C)C)N(C)C)C(C)C (stereo partly drawn) [compound 8, AF-Cit-Lys(PEG4-Mal-Cys-Ac)-Phe-OH] (NMe2Val-V[Dil][Dolaproine]F[Cit]K([PEG4-X2])F-OH)	Cathepsin B (Homo sapiens)	0.09
CC[C@H](C)[C@@H]([C@@H](CC(=O)N1CCC[C@H]1[C@H](OC)[C@@H](C)C(=O)N[C@@H](Cc1ccccc1)C(=O)N[C@@H](CCCNC(=N)N)C(=O)N[C@@H](CCCCNC(=O)CCOCCOCCOCCOCCOCCNC(=O)CCN1C(=O)CC(SC[C@H](NC(C)=O)C(=O)O)C1=O)C(=O)N[C@@H](Cc1ccccc1)C(=O)O)OC)N(C)C(=O)[C@@H](NC(=O)[C@H](C(C)C)N(C)C)C(C)C (stereo partly drawn) [compound 1, AF-Arg-Lys(PEG4-Mal-Cys-Ac)-Phe-OH] (NMe2Val-V[Dil][Dolaproine]FRK([PEG5-X2])F-OH)	Cathepsin B (Homo sapiens)	0.12

Challenge: Can you look up the measured Ratio (T1/2 Compound/T1/2 Reference) of COc1cc2cc(c1Cl)N(C)C(=O)C[C@H](OC(=O)[C@H](C)N(C)C(=O)CCSC1CC(=O)N(CCC(=O)N[C@@H](Cc3ccccc3)C(=O)N[C@@H](CCCNC(N)=O)C(=O)N[C@@H](Cc3ccccc3)C(=O)N[C@@H](CCCCNC(=O)CCOCCOCCOCCOCCNC(=O)CCN3C(=O)CC(SC[C@H](NC(C)=O)C(=O)O)C3=O)C(=O)O)C1=O)[C@]1(C)O[C@H]1[C@H](C)[C@@H]1C[C@@](O)(NC(=O)O1)[C@H](OC)/C=C/C=C(\C)C2 (stereo partly drawn) [compound 7] ({DM1Mal(CH2)2CO}-F[Cit]FK([PEG4-X2])-OH) for me?
Response given: 0.09

* * *

# TESTED_TARGET: Cathepsin B (Homo sapiens, UniProt P07858)
# Construct: purchased R&D Systems, Bio-Techne AG 953-CY-010
# PROTOCOL_SUMMARY: Cat B-induced cleavage, in vitro enzymatic cleavage assay with UHPLC-MS/MS
# Assay type: biochemical
# MEASUREMENT_CONTEXT: versus Cys-MC-Val-Cit-PABC-MMAF
Non-standard residues stand in square brackets, D forms with d. Residues, ends and D or L forms follow the SMILES beside them. Groups on a side chain read outwards from the residue. *: point of attachment. X2 = CC(=O)N[C@@H](CSC1CC(=O)N(CCC(=O)*)C1=O)C(=O)O; Dolaproine = CO[C@@H]([C@@H]1CCCN1)[C@@H](C)C(=O)O; Dil = CC[C@H](C)[C@H](NC)[C@@H](CC(=O)O)OC; NMe2Val = CC(C)[C@@H](C(=O)*)N(C)C; PEG4 = NCCOCCOCCOCCOCCC(=O)O
RECORDED_METRIC: Ratio (T1/2 Compound/T1/2 Reference)
No unit in the answer, please; the number alone is enough.

Challenge: Can you look up the measured Ratio (T1/2 Compound/T1/2 Reference) of CC[C@H](C)[C@@H]([C@@H](CC(=O)N1CCC[C@H]1[C@H](OC)[C@@H](C)C(=O)N[C@@H](Cc1ccccc1)C(=O)N[C@@H](CCCNC(=N)N)C(=O)N[C@@H](Cc1ccccc1)C(=O)N[C@@H](CCCCNC(=O)CCOCCOCCOCCOCCNC(=O)CCN1C(=O)CC(SC[C@H](NC(C)=O)C(=O)O)C1=O)C(=O)O)OC)N(C)C(=O)[C@@H](NC(=O)[C@H](C(C)C)N(C)C)C(C)C (stereo partly drawn) [compound 3, AF-Arg-Phe-Lys(PEG4-Mal-Cys-Ac)-OH] (NMe2Val-V[Dil][Dolaproine]FRFK([PEG4-X2])-OH) for me?
Response given: 0.11

* * *

# TESTED_TARGET: Cathepsin B (Homo sapiens, UniProt P07858)
# Construct: purchased R&D Systems, Bio-Techne AG 953-CY-010
# PROTOCOL_SUMMARY: Cat B-induced cleavage, in vitro enzymatic cleavage assay with UHPLC-MS/MS
# Format: biochemical
# MEASUREMENT_CONTEXT: versus Cys-MC-Val-Cit-PABC-MMAF
RECORDED_METRIC: Ratio (T1/2 Compound/T1/2 Reference)
No unit in the answer, please; the number alone is enough.

MOLECULE	ASSAY_VALUE
COc1cc2cc(c1Cl)N(C)C(=O)C[C@H](OC(=O)[C@H](C)N(C)C(=O)CCSC1CC(=O)N(CC3CCC(C(=O)N[C@@H](Cc4ccccc4)C(=O)N[C@@H](CCCNC(N)=O)C(=O)N[C@@H](CCCCNC(=O)CCOCCOCCOCCOCCOCCNC(=O)CN4C(=O)CC(SC[C@H](NC(C)=O)C(=O)O)C4=O)C(=O)N[C@@H](Cc4ccc(O)cc4)C(=O)O)CC3)C1=O)[C@]1(C)O[C@H]1[C@H](C)[C@@H]1C[C@@](O)(NC(=O)O1)[C@H](OC)/C=C/C=C(\C)C2 (some centres unmarked) [compound 11]	0.005

Challenge: Can you look up the measured Ratio (T1/2 Compound/T1/2 Reference) of COc1cc2cc(c1Cl)N(C)C(=O)C[C@H](OC(=O)[C@H](C)N(C)C(=O)CCSC1CC(=O)N(CC3CCC(C(=O)N[C@@H](CCCNC(N)=O)C(=O)N[C@@H](CCCCNC(=O)CCOCCOCCOCCOCCOCCNC(=O)CN4C(=O)CC(SC[C@H](NC(C)=O)C(=O)O)C4=O)C(=O)N[C@@H](Cc4ccc(O)cc4)C(=O)O)CC3)C1=O)[C@]1(C)O[C@H]1[C@H](C)[C@@H]1C[C@@](O)(NC(=O)O1)[C@H](OC)/C=C/C=C(\C)C2 (stereo partly drawn) [compound 12, DM1-Mcc-Cit-Lys(PEG5-Mal-Cys-Ac)-Tyr-OH] for me?
Response given: 0.00004
